Biological target: Rat intestinal sucrase (Rattus norvegicus, UniProt P23739)
Construct: from tissue; host or cells: rat intestine
Assay: In vitro enzyme inhibition, glucose release from disaccharide
Type: biochemical
MEASUREMENT_LABEL: IC50 (µM)
Express your answer in µM, writing the number without its unit.

Prompt: Dear colleague, I am looking for the recorded IC50 of the following compound: O[C@H]1[C@H](O)[C@@H](O)CN2CC[C@H](O)[C@H]12
Completion: 0.28

###

Target: Rat intestinal maltase
Experiment: In vitro enzyme inhibition, glucose release from disaccharide
Format: biochemical
Details: concentration required to inhibit the enzyme to 50% activity
What pIC50 was measured for each of the following?
Recall that pIC50 is obtained by taking minus log10 of the concentration measured in molar.

Prompt: # input compound: CCCCCCCCCN1C[C@H](O)[C@@H](O)[C@H](O)[C@H]1CO ; wanted: its pIC50
Completion: 6.34

Prompt: Repeat for the following compound: OC[C@H]1NC[C@H](O)[C@@H](O)[C@H]1O
Completion: 3.44

Prompt: What do you have for CCCCN1C[C@H](O)[C@@H](O)[C@H](O)[C@H]1CO ?
Completion: 5.96

###

Please go through the items and note down their pIC50.
Biological target: Rat intestinal maltase
Assay: In vitro enzyme inhibition, glucose release from disaccharide
Conditions: concentration required to inhibit the enzyme to 50% activity
Worth noting: pIC50 values are minus log10 of concentrations stated in mol/L.

Prompt: Test system Rat intestinal maltase; read-out pIC50; what value for O[C@H]1[C@H](O)[C@@H](O)CN2CC[C@H](O)[C@H]12 ?
Completion: 6.43

Prompt: Now consider CCCC(=O)O[C@H]1CN2CC[C@H](O)[C@@H]2[C@@H](O)[C@@H]1O and answer again.
Completion: 4.77

Prompt: Next up: OC[C@H]1NC[C@H](O)[C@@H](O)[C@@H]1O
Completion: 6.70

###

Target: Rat intestinal isomaltase (Rattus norvegicus, UniProt P23739)
Construct: from tissue; host or cells: rat intestine
Sequence (P23739 whole entry): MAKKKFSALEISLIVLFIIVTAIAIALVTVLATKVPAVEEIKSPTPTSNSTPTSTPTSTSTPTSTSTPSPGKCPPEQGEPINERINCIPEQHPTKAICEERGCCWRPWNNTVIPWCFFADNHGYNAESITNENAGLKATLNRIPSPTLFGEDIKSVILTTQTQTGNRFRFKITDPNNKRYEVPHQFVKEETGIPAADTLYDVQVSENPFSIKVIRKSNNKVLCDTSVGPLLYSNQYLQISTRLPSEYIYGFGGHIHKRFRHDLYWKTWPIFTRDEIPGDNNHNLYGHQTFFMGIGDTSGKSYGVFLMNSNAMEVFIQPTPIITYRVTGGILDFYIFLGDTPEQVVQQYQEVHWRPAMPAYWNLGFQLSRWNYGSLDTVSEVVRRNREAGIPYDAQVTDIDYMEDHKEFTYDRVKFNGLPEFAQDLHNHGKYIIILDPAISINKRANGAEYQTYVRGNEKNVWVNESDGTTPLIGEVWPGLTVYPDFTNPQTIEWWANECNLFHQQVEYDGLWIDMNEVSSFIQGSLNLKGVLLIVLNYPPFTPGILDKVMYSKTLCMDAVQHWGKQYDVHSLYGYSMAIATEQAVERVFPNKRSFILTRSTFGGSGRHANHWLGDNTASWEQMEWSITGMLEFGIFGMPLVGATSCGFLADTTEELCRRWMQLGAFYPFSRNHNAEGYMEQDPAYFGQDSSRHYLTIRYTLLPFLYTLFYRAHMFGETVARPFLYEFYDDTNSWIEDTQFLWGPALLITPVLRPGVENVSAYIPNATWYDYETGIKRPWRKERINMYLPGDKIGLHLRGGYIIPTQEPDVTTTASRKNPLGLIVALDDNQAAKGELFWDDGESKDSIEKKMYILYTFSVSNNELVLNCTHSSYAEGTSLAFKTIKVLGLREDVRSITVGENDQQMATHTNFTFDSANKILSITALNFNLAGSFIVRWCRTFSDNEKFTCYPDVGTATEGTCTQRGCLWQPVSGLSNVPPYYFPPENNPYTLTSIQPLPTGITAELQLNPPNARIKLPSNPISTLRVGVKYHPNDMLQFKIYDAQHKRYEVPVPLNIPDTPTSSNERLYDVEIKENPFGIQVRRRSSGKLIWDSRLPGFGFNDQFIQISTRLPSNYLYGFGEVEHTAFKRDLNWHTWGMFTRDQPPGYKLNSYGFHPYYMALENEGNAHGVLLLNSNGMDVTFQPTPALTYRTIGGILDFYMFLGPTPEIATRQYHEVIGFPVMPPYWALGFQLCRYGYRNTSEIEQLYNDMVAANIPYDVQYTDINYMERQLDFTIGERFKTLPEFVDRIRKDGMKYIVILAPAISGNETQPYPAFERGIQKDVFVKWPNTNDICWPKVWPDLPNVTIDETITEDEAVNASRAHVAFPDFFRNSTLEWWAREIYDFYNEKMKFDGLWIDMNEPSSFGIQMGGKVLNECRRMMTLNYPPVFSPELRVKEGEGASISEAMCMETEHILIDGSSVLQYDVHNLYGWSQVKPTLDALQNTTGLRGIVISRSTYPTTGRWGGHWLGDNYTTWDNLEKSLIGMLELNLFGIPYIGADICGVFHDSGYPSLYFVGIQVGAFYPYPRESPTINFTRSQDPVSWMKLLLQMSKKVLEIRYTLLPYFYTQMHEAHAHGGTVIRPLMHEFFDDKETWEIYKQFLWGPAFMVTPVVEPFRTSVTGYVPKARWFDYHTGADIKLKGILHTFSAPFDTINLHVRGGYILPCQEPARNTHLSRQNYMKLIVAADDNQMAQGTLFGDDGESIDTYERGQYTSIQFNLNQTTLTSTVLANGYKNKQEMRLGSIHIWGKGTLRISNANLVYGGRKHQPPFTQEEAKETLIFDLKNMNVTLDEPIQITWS
Test: In vitro enzyme inhibition, glucose release from disaccharide
Format: biochemical
Details: concentration required to inhibit the enzyme to 50% activity; read-out: IC50
MEASUREMENT_LABEL: pIC50
A value of pIC50 is the negative decimal logarithm of a concentration given in moles per litre.

Prompt: So what's the measured pIC50 for this one? CCCC(=O)O[C@H]1CN2CC[C@H](O)[C@@H]2[C@@H](O)[C@@H]1O
Completion: 4.53

Prompt: And OC[C@H]1NC[C@H](O)[C@@H](O)[C@@H]1O ?
Completion: 6.10

Prompt: Entry CCCCCCCCCN1C[C@H](O)[C@@H](O)[C@H](O)[C@H]1CO please
Completion: 5.14

###

Target: Mouse ER α-glucosidase II (Mus musculus, UniProt Q8BHN3)
Sequence (Q8BHN3 33-944): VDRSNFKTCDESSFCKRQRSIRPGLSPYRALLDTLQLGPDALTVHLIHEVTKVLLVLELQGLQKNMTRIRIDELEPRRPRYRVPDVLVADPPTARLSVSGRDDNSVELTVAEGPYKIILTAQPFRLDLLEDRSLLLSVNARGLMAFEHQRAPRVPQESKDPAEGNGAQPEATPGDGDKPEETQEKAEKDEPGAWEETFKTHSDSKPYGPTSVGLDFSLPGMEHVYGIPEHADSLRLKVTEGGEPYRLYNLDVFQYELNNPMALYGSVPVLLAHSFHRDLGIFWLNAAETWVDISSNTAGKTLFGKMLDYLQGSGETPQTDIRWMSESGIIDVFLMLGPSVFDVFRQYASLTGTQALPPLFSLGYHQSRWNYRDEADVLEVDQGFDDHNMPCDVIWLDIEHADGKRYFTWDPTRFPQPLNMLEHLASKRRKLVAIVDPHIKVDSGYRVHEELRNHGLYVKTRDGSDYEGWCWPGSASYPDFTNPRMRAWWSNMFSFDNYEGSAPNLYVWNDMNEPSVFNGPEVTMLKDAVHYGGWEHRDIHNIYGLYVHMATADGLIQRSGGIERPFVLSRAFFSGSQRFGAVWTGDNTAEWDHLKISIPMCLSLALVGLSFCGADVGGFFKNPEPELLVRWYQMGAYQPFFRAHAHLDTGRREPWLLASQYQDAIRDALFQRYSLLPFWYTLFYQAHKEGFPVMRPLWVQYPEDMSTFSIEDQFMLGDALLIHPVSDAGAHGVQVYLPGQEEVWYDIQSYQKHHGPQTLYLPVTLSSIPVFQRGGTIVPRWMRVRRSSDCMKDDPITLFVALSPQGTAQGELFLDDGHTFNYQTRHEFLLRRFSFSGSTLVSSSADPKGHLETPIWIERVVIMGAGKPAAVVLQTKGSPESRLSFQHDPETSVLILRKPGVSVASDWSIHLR
Sequence (O08795 15-521 partner): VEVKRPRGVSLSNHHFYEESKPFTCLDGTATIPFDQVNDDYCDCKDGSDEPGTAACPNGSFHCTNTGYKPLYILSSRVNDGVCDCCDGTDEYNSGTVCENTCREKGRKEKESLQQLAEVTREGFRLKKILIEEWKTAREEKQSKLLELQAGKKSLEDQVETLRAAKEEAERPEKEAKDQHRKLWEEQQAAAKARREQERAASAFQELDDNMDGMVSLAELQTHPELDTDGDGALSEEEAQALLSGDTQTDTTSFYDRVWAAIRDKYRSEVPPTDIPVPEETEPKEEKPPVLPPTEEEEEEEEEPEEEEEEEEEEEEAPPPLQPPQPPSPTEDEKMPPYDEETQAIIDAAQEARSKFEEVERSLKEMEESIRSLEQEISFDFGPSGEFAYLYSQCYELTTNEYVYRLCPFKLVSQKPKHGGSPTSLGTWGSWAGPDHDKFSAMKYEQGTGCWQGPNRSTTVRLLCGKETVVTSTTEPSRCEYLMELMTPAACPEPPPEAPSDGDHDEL
MEASUREMENT_LABEL: IC50

Prompt: Given the compound CCCCCCCCCN1C[C@H](O)[C@@H](O)[C@@H](O)[C@H]1CO [NN-DGJ] , what is its reported IC50?
Completion: > 1 mM

Prompt: Same for CCCCN1C[C@H](O)[C@@H](O)[C@@H](O)[C@H]1CO [NB-DGJ]
Completion: > 1 mM

Prompt: Next record, please: OC[C@H]1NC[C@H](O)[C@@H](O)[C@H]1O [DGJ, 1-deoxygalactonojirimycin]
Completion: > 1 mM

###

Target: Rat intestinal isomaltase (Rattus norvegicus, UniProt P23739)
Construct: from tissue; host or cells: rat intestine
Assay: In vitro enzyme inhibition, glucose release from disaccharide
Assay type: biochemical
Conditions: concentration required to inhibit the enzyme to 50% activity; read-out: IC50
Please respond with reported IC50 for every item in the list.

Prompt: Quick check: IC50 of CCCCN1C[C@H](O)[C@@H](O)[C@@H](O)[C@H]1CO [NB-DGJ] ?
Completion: > 1000 µM

Prompt: Another compound to check: OC[C@H]1NC[C@H](O)[C@@H](O)[C@H]1O [DGJ, 1-deoxygalactonojirimycin]
Completion: > 1000 µM

Prompt: Next compound: CCCCCCCCCN1C[C@H](O)[C@@H](O)[C@@H](O)[C@H]1CO [NN-DGJ]
Completion: > 1000 µM

FYI, the data here is from paper PMC4790851.
